Molecular target: PUM1 PUF domain R3-GPR (Homo sapiens, UniProt Q14671 828-1176, C935G;R936P;Q939R)
Sequence (Q14671 828-1176 C935G/R936P/Q939R): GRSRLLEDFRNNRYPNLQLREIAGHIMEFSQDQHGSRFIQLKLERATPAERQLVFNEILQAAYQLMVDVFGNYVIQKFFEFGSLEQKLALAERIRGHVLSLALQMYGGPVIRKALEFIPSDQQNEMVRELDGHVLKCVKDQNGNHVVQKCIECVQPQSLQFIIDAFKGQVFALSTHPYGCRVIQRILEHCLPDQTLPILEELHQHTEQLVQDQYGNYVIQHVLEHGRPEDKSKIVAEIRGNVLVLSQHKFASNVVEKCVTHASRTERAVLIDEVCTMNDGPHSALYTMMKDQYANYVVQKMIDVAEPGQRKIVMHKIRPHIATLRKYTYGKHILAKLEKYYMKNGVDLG
Assay: yeast three-hybrid, YBZ-1, SC-Leu-His + 0.5 mM 3-AT, 4 days
Conditions: tags: N-Gal4 AD-HA kept; label: inside an RPR1-promoter hybrid RNA with tandem MS2 sites; ssRNA
QUANTITY: binding signal

> print(dat)
                            record.sequence                      observed.measurement
1  GGCUAGAACUAGUGGAUCCCCCGGCGCCCGGCGGCUCGAGCCCGGGUAAGUGUAACUAGUCUGCAUGCCGCCGGGCGCCAUGCCUGCAGGUCGACUCUAGAAAACAUG   1.8 log2 enrichment (interaction score)
2  GGCUAGAACUAGUGGAUCCCCCGGCGCCCGGCGGCUCGAGCCCGGGUAAGUGUAAGUAGUCUGCAUGCCGCCGGGCGCCAUGCCUGCAGGUCGACUCUAGAAAACAUG  1.82 log2 enrichment (interaction score)
3  GGCUAGAACUAGUGGAUCCCCCGGCGCCCGGCGGCUCGAGCCCGGGUAAGUGUAAAUAGUCUGCAUGCCGCCGGGCGCCAUGCCUGCAGGUCGACUCUAGAAAACAUG  0.81 log2 enrichment (interaction score)
4  GGCUAGAACUAGUGGAUCCCCCGGCGCCCGGCGGCUCGAGCCCGGGUAAGUGUAAUUAGUCUGCAUGCCGCCGGGCGCCAUGCCUGCAGGUCGACUCUAGAAAACAUG  3.57 log2 enrichment (interaction score)

---

Target: PUM1 PUF domain R5-RRN (Homo sapiens, UniProt Q14671 828-1176, C1007R;Q1011N)
Sequence (Q14671 828-1176 C1007R/Q1011N): as the sequence (Q14671 828-1176 C935G/R936P/Q939R) above, with G108C, P109R, R112Q, C180R, Q184N counted along it
Assay: yeast three-hybrid, YBZ-1, SC-Leu-His + 0.5 mM 3-AT, 4 days
Settings: tags: N-Gal4 AD-HA kept; label: inside an RPR1-promoter hybrid RNA with tandem MS2 sites; ssRNA
QUANTITY: binding signal

> print(dat)
                            record.sequence                      observed.measurement
1  GGCUAGAACUAGUGGAUCCCCCGGCGCCCGGCGGCUCGAGCCCGGGUAAGUGUUAAUAGUCUGCAUGCCGCCGGGCGCCAUGCCUGCAGGUCGACUCUAGAAAACAUG  3.66 log2 enrichment (interaction score)
2  GGCUAGAACUAGUGGAUCCCCCGGCGCCCGGCGGCUCGAGCCCGGGUAAGUGUGAAUAGUCUGCAUGCCGCCGGGCGCCAUGCCUGCAGGUCGACUCUAGAAAACAUG   1.8 log2 enrichment (interaction score)
3  GGCUAGAACUAGUGGAUCCCCCGGCGCCCGGCGGCUCGAGCCCGGGUAAGUGUAAAUAGUCUGCAUGCCGCCGGGCGCCAUGCCUGCAGGUCGACUCUAGAAAACAUG  2.02 log2 enrichment (interaction score)
4  GGCUAGAACUAGUGGAUCCCCCGGCGCCCGGCGGCUCGAGCCCGGGUAAGUGUCAAUAGUCUGCAUGCCGCCGGGCGCCAUGCCUGCAGGUCGACUCUAGAAAACAUG   4.4 log2 enrichment (interaction score)

---

Molecular target: PUM1 PUF domain R5-RRE (Homo sapiens, UniProt Q14671 828-1176, C1007R;Q1011E)
Sequence (Q14671 828-1176 C1007R/Q1011E): as the sequence (Q14671 828-1176 C935G/R936P/Q939R) above, with G108C, P109R, R112Q, C180R, Q184E counted along it
Test: yeast three-hybrid, YBZ-1, SC-Leu-His + 0.5 mM 3-AT, 4 days
Conditions: tags: N-Gal4 AD-HA kept; label: inside an RPR1-promoter hybrid RNA with tandem MS2 sites; ssRNA
QUANTITY: binding signal

> print(dat)
                            record.sequence                      observed.measurement
1  GGCUAGAACUAGUGGAUCCCCCGGCGCCCGGCGGCUCGAGCCCGGGUAAGUGUCAAUAGUCUGCAUGCCGCCGGGCGCCAUGCCUGCAGGUCGACUCUAGAAAACAUG  4.96 log2 enrichment (interaction score)
2  GGCUAGAACUAGUGGAUCCCCCGGCGCCCGGCGGCUCGAGCCCGGGUAAGUGUAAAUAGUCUGCAUGCCGCCGGGCGCCAUGCCUGCAGGUCGACUCUAGAAAACAUG  1.27 log2 enrichment (interaction score)
3  GGCUAGAACUAGUGGAUCCCCCGGCGCCCGGCGGCUCGAGCCCGGGUAAGUGUGAAUAGUCUGCAUGCCGCCGGGCGCCAUGCCUGCAGGUCGACUCUAGAAAACAUG  2.27 log2 enrichment (interaction score)
4  GGCUAGAACUAGUGGAUCCCCCGGCGCCCGGCGGCUCGAGCCCGGGUAAGUGUUAAUAGUCUGCAUGCCGCCGGGCGCCAUGCCUGCAGGUCGACUCUAGAAAACAUG  5.72 log2 enrichment (interaction score)

# credit: paper PMC8384837
